Protocol Summary: small-molecule binders of probe aNOTCH2, primary screen, biochemical, small-molecule microarray, 635/667 nm fluorescence (AID 1121);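 further: score merges feature fluorescence read at 667 nm with its signal to noise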
Reported Conditions: higher = more signal
Can you tell me composite z-score for the items I'm about to list?

Compound: CC(C)=NOC(C)CN1CCCc2nc(C)c(C)cc21 (configuration not stated)
composite z-score: 0.0037
--
Compound: COc1ccc(O[C@H]2C=C[C@@H](C#Cc3ccccc3)O[C@@H]2CO)cc1
composite z-score: 0.113
--
Compound: O=C1C2=CC[C@H]3C(=O)N(Cc4ccccc4)C(=O)[C@H]3[C@H]2[C@H](O)[C@@H]2O[C@H]12
composite z-score: -0.167
--
Compound: COc1cccc([C@H](O)Cn2cc(-c3ccc(CON=C(C)C)cc3)nn2)c1
composite z-score: 0.127

# per-item lookup of composite z-score; items listed below
1. CCOC(=O)[C@H](Cc1ccccc1)NC(=O)CCC1CC(OC(=O)NCc2ccc3c(c2)OCO3)CC2(CCCC(COC(=O)NCCOC)O2)O1 (some centres not stated)
2. C[C@H]1CC[C@H]2C(=O)OC(COc3ccc(C(C)(C)C)cc3)CN2[C@@H]1c1ccc(Br)cc1 (some centres not stated)
3. CC(=O)OC[C@H]1O[C@H](C#CCCc2ccccc2)C=C[C@@H]1OC(C)=O
4. CCCC[C@H]1CN2[C@@H](CC[C@@H](C)[C@@H]2c2ccc(Br)cc2)C(=O)O1

Response:
1. -0.0785
2. -0.189
3. -0.0727
4. -0.183
